# target.or.test.system: RET-CCDC6 (Homo sapiens)
# Construct: CCDC6 fusion partner (Q16204 for human); the other entry of the earlier key: CCDC6 (Q16204, Coiled-coil domain-containing protein 6)
# Sequence (P07949 with tags, fused parts or gaps): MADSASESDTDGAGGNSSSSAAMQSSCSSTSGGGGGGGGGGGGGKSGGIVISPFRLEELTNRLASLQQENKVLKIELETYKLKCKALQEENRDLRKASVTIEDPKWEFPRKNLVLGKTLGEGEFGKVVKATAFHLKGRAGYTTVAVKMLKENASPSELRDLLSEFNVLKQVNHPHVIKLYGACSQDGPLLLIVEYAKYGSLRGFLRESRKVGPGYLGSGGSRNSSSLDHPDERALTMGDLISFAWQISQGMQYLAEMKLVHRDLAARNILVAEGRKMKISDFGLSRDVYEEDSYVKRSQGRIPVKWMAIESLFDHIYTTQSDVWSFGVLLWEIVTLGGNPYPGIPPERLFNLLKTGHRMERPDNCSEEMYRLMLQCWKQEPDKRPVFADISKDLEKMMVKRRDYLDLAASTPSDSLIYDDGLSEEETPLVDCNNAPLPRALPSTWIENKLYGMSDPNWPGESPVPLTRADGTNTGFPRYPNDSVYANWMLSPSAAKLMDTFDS
# assay.info: RET inhibition experiment (HTRF KinEASE-TK kit), fusion-type RET enzyme
# Assay type: biochemical
# details: read-out: The IC50 (nM) for inhibiting RET-CCDC6
Threshold 3 nM. IC50 below it: condition met. IC50 at it or above: condition not met.

molecule_smiles=Cc1cc(Nc2cc(C)[nH]n2)nc(-c2ccc(N3CC4CC(C3)N4Cc3ccc(-n4cccn4)nc3)nc2)n1 target_or_test_system="RET-CCDC6 (Homo sapiens)" class_label="condition not met"
molecule_smiles=Cc1cc(Nc2cc(C)[nH]n2)nc(-c2ccc(N3CC4CC(C3)N4Cc3ccc(-n4ccc(C5CC5)n4)nc3)nc2)n1 target_or_test_system="RET-CCDC6 (Homo sapiens)" class_label="condition not met"
molecule_smiles=Cc1cc(Nc2cc(C)[nH]n2)nc(-c2ccc(N3CC4CC(C3)N4Cc3ccc(-n4cc(F)cn4)nc3)nc2)n1 target_or_test_system="RET-CCDC6 (Homo sapiens)" class_label="condition met"
molecule_smiles=Cc1cc(Nc2cc(C)[nH]n2)nc(-c2ccc(N3CC4CC(C3)N4Cc3ccc(Cl)cn3)nc2)n1 target_or_test_system="RET-CCDC6 (Homo sapiens)" class_label="condition not met"
